- ASSAY PROTOCOL: Human HepG2 cell viability assay in 384 well format
- Format: toxicity, cell-based
- Parameters: dose 125 nL, time 70.5 hour; concentration not given beside the values
- PARTICULARS: HepG2 cells, read-out: Inhibition
Rule: cytotoxicity at 70.5 h of 20% or more gives rule met; anything lower gives rule not met.

{"MOLECULE": "CC(c1ccco1)N(C(=O)NCc1ccon1)C1CC1 (stereo unspecified)", "GROUP LABEL": "rule met"}
{"MOLECULE": "COc1cccc(N2CCN(Cc3cc(C)cc(F)c3)CC2=O)c1", "GROUP LABEL": "rule not met"}
{"MOLECULE": "CN(C)CC1CN(C(=O)NCc2ccccc2)Cc2nccn2C1 (stereo unspecified)", "GROUP LABEL": "rule not met"}
{"MOLECULE": "Cn1cnnc1S(=O)(=O)Cc1cc(Cl)c2c(c1)OCO2", "GROUP LABEL": "rule not met"}
{"MOLECULE": "Cc1c(O)cccc1C(=O)N1CCCC2(C1)C(=O)N(C)c1ccccc12 (stereo unspecified)", "GROUP LABEL": "rule met"}
{"MOLECULE": "Nc1nc(CNc2ncnc3c2CCN(Cc2ccoc2)CC3)cs1", "GROUP LABEL": "rule met"}

* * *

- ASSAY PROTOCOL: Human HepG2 cell viability assay in 384 well format
- Assay type: toxicity, cell-based
- Design: dose 125 nL, time 70.5 hour; concentration not given beside the values
- PARTICULARS: HepG2 cells, read-out: Inhibition
MEASUREMENT NAME: cytotoxicity at 70.5 h (%)

{"COMPOUND": "Cc1cc(C2CCCN2C(=O)CN2CC3(CCNCC3)OC2=O)on1 (configuration not stated)", "ENDPOINT VALUE": -5.06}
{"COMPOUND": "COCCN1CCCC2(CCN(Cc3noc(C4CCCC4)n3)C2)C1=O (configuration not stated)", "ENDPOINT VALUE": -4.8}
{"COMPOUND": "CC(C)N(Cc1cccc(Cl)c1)Cc1nnsc1Cl", "ENDPOINT VALUE": -2.95}
{"COMPOUND": "Cc1ccc(CN2CCNC(C(=O)NC3CC3)C2)cc1C (configuration not stated)", "ENDPOINT VALUE": -10.4}
{"COMPOUND": "NC(=O)NC(CC(=O)NCCc1cccc(F)c1)c1ccccc1 (configuration not stated)", "ENDPOINT VALUE": -6.09}
{"COMPOUND": "COCC(=O)N1C[C@@H](OCc2cccnc2)[C@H]2OCCC[C@@H]21", "ENDPOINT VALUE": 14.3}
{"COMPOUND": "COCCN1CCN(Cc2noc(C3CC3)n2)CC1C (configuration not stated)", "ENDPOINT VALUE": 12.5}
{"COMPOUND": "CC(NC(=O)CNCCn1cccn1)c1ccc2c(c1)OCCO2 (configuration not stated)", "ENDPOINT VALUE": -7.87}
{"COMPOUND": "CN(c1nccc(-c2cnc3sc(Cl)cn3c2=O)n1)C1CCCCC1", "ENDPOINT VALUE": -3.38}
{"COMPOUND": "CN(CCn1nc2ccccn2c1=O)CC(=O)N(C)C1CCCCC1", "ENDPOINT VALUE": 2.32}
{"COMPOUND": "COc1cc(N2CCC3(CCCN3Cc3cnn(C)c3)CC2)ncn1", "ENDPOINT VALUE": -3.32}
{"COMPOUND": "N#Cc1ccnc(N2CCC(NCCN3CCCC3)CC2)c1", "ENDPOINT VALUE": -6.96}
